B1: TPR t1 (parent)
chain: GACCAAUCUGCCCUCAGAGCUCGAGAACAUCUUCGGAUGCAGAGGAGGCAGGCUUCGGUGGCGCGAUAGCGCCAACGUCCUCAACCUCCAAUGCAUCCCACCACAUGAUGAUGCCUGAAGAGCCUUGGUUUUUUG

- Variants of: B1
- EXPERIMENTAL DETAILS: polymerase ribozyme fitness, log enrichment relative to wild type (log ratio); higher = more active; in vitro selection for triplet polymerase activity
Label label 1 when polymerase ribozyme fitness (log ratio) is at or above -3; anything below gets label 0.

Known results for variants:
Prompt: Form field: polymerase ribozyme fitness (log ratio) at least -3? Entry: C28U C56U C73G U78C C101A
Response: label 0

Prompt: Then U7G C89A U116A G117A ?
Response: label 1

Prompt: Then G52C U59C G120U U125C ?
Response: label 1

Prompt: Then C62U G110C ?
Response: label 0

New cases:
Prompt: Form field: polymerase ribozyme fitness (log ratio) at least -3? Entry: C22A G45A G63C C88U
Response: label 0

Prompt: Then G17U A18U G39U C123A ?
Response: label 0
